target: BChE (Homo sapiens); test: biochemical; conditions: mean ± SD; modified Ellman, 37 °C, pH 7.4
Sequence (P06276 29-602): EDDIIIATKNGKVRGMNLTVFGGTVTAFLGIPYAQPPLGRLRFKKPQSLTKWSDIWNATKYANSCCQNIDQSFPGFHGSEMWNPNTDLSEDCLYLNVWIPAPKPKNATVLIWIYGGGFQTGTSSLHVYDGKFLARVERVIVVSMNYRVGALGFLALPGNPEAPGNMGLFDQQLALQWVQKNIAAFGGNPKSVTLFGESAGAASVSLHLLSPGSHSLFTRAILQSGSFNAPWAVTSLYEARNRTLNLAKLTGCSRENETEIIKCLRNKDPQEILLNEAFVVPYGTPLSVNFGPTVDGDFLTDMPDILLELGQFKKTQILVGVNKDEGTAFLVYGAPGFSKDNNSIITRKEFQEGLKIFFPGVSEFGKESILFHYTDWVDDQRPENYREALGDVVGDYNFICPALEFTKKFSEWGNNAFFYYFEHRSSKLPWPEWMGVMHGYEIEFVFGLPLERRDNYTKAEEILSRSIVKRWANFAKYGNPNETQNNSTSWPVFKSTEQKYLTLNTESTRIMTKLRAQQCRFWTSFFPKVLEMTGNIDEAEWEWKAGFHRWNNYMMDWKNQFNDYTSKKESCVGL

- compound: "CCN(CC(=O)NN=Cc1cc([N+](=O)[O-])ccc1OCCCN1C(=O)c2ccccc2C1=O)Cc1ccccc1 [Compound 8c]"
  tested-system: "BChE (Homo sapiens)"
  IC50 / µM: 21.8
- compound: "CCN(CC(=O)NN=Cc1ccccc1OCCCN1C(=O)c2ccccc2C1=O)Cc1ccccc1 [Compound 8b]"
  tested-system: "BChE (Homo sapiens)"
  IC50 / µM: 26.8
- compound: "CCN(CC(=O)NN=Cc1ccc(OC)c(OCCCN2C(=O)c3ccccc3C2=O)c1)Cc1ccccc1 [Compound 8e]"
  tested-system: "BChE (Homo sapiens)"
  IC50 / µM: 14.7
- compound: "CN(CC(=O)NN=Cc1ccc(OCCCN2C(=O)c3ccccc3C2=O)cc1)Cc1ccccc1 [Compound 8f]"
  tested-system: "BChE (Homo sapiens)"
  IC50 / µM: 15.7
- compound: "CN(CC(=O)NN=Cc1ccccc1OCCCN1C(=O)c2ccccc2C1=O)Cc1ccccc1 [Compound 8a]"
  tested-system: "BChE (Homo sapiens)"
  IC50 / µM: 30.2
- compound: "CCN(CC(=O)NN=Cc1cccc(OCCCN2C(=O)c3ccccc3C2=O)c1)Cc1ccccc1 [Compound 8d]"
  tested-system: "BChE (Homo sapiens)"
  IC50 / µM: 11.8
- compound: "CCN(CC(=O)NN=Cc1ccc(OCCCN2C(=O)c3ccccc3C2=O)cc1)Cc1ccccc1 [Compound 8g]"
  tested-system: "BChE (Homo sapiens)"
  IC50 / µM: 5.7
- compound: "CCN(CC(=O)NN=Cc1ccc(OCCCN2C(=O)c3ccccc3C2=O)c(OC)c1)Cc1ccccc1 [Compound 8h]"
  tested-system: "BChE (Homo sapiens)"
  IC50 / µM: 13.2

###

pIC50: −log10 of the molar value.
Parameter pIC50, tested on AChE (Homo sapiens), listed per item.
Sequence (P22303 32-614): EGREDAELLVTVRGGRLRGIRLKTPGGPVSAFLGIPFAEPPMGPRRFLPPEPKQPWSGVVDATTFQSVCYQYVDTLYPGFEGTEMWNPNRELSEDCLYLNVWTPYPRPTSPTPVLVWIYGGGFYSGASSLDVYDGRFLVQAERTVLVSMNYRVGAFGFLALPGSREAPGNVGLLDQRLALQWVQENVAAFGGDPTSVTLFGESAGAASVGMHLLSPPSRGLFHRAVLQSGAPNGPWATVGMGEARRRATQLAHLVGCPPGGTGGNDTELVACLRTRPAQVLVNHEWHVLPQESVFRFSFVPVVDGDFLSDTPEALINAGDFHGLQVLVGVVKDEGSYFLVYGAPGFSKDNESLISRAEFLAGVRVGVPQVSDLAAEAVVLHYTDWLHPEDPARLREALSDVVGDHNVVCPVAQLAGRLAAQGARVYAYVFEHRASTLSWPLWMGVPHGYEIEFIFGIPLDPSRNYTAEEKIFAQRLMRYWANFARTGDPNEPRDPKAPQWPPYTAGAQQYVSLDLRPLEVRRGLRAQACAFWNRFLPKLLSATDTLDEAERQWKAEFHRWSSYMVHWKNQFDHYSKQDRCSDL
readout-label: pIC50

- compound: "CCN(CC(=O)NN=Cc1cccc(OCCCN2C(=O)c3ccccc3C2=O)c1)Cc1ccccc1 [Compound 8d]"
  tested-system: "AChE (Homo sapiens)"
  reading: 6.80
- compound: "CCN(CC(=O)NN=Cc1ccc(OC)c(OCCCN2C(=O)c3ccccc3C2=O)c1)Cc1ccccc1 [Compound 8e]"
  tested-system: "AChE (Homo sapiens)"
  reading: 6.68
- compound: "CCN(CC(=O)NN=Cc1ccc(OCCCN2C(=O)c3ccccc3C2=O)cc1)Cc1ccccc1 [Compound 8g]"
  tested-system: "AChE (Homo sapiens)"
  reading: 6.07
- compound: "CN(CC(=O)NN=Cc1ccc(OCCCN2C(=O)c3ccccc3C2=O)cc1)Cc1ccccc1 [Compound 8f]"
  tested-system: "AChE (Homo sapiens)"
  reading: 6.49
- compound: "CCN(CC(=O)NN=Cc1cc([N+](=O)[O-])ccc1OCCCN1C(=O)c2ccccc2C1=O)Cc1ccccc1 [Compound 8c]"
  tested-system: "AChE (Homo sapiens)"
  reading: 6.80
- compound: "CCN(CC(=O)NN=Cc1ccccc1OCCCN1C(=O)c2ccccc2C1=O)Cc1ccccc1 [Compound 8b]"
  tested-system: "AChE (Homo sapiens)"
  reading: 6.74
- compound: "CCN(CC(=O)NN=Cc1ccc(OCCCN2C(=O)c3ccccc3C2=O)c(OC)c1)Cc1ccccc1 [Compound 8h]"
  tested-system: "AChE (Homo sapiens)"
  reading: 6.77
- compound: "CN(CC(=O)NN=Cc1ccccc1OCCCN1C(=O)c2ccccc2C1=O)Cc1ccccc1 [Compound 8a]"
  tested-system: "AChE (Homo sapiens)"
  reading: 6.96
